# Test system: BT-549 breast
# METHOD_NOTES: NCI-60 one-dose screen, 48 h (100 = growth as untreated, 0 = no growth, -100 = all killed)
# CONDITION_SET: 10 µM
About 83,000 compounds went through this panel and 20% of them were active in at least one assay; those are over-represented in the sample as a whole.
MEASURE_NAME: growth (%)

>>> numeric_value("CN(C)C=Nc1cc(Cl)ccc1Cl")
112
>>> numeric_value("Cc1cc2c(C)c3cc(C)c(N)cc3nc2cc1N")
57.8
>>> numeric_value("Nc1c(C(=O)Nc2ccccc2)sc2nc3c(cc12)CCCC3")
66.6
>>> numeric_value("O=C1Nc2ccc(Cl)cc2/C1=C\\c1c(-c2ccc(Cl)cc2)nc2sc(C3CC3)nn12")
65.3
>>> numeric_value("Cc1ccc(-c2n[nH]c(=O)c3noc(-c4ccc(C)cc4)c23)cc1")
38.3
>>> numeric_value("COc1cc(-c2cc(/C=C/C(=O)c3ccc4c(c3)OCO4)[nH]n2)cc(OC)c1OC")
60.9
>>> numeric_value("Cc1c(Cl)cccc1NC(=O)c1sc2nc3c(cc2c1N)C(=O)CCC3")
49.9
>>> numeric_value("O=S(=O)(NCCCNc1nccc(-c2c(-c3ccc(F)cc3)nc3sccn23)n1)c1ccc(F)cc1")
52.8
>>> numeric_value("O=C1/C(=C/c2ccc(Cl)cc2)SC(=Nc2ccc(Cl)cc2)N1Cc1nc2ccccc2[nH]1")
104
>>> numeric_value("O=C1CC[C@@H]2CCCC[C@@H]2C1")
136
>>> numeric_value("COc1ccc(-c2cc(/C=C3\\C(=O)Nc4ccc(Cl)cc43)[nH]n2)cc1OC")
99.7
>>> numeric_value("COc1ccc(NC(=O)CSc2nc3ccccc3c(=O)n2CCc2ccccc2)cc1")
91.8
>>> numeric_value("CCCCCCCCCCCCCCCCCC(=O)OCCCCCCC")
110
>>> numeric_value("Cc1ccc(NC(=O)Nc2c(Cl)cccc2Cl)cn1")
118
>>> numeric_value("O=C1OCC2=C1C(c1cccc(Br)c1)c1cc3c(cc1N2CCO)CCC3 (stereo not drawn)")
15.7
>>> numeric_value("O=C(Nc1cccc(Cl)c1)Nc1nccs1")
90.1
>>> numeric_value("O=C(CCCCC(=O)Nc1ccc2c(c1)/C(=C/c1ccc[nH]1)C(=O)N2)NO")
97.1
>>> numeric_value("Cc1ccc(CC#N)cc1C")
124
>>> numeric_value("COC(=O)C(=C\\c1ccc2c(c1)OCO2)/C(=C/c1ccc2c(c1)OCO2)C(=O)OC")
95.5
>>> numeric_value("C[C@@H]1C=C2C(=O)O[C@@H]3CC[C@H](C1)[C@]23O")
54.4
>>> numeric_value("CC(=O)c1cc(Cl)ccc1O")
105
>>> numeric_value("Nc1ccccc1NC(=O)CCCCC(=O)Nc1ccc2c(c1)/C(=C/c1ccc[nH]1)C(=O)N2")
33.9
>>> numeric_value("COc1ccc(-c2nn(-c3cccc(NC(=O)c4ccc(Cl)c(Cl)c4)c3)cc2-c2ccncc2)cc1Cl")
95.4

* * *

# System: MOLT-4 leukemia
# METHOD_NOTES: NCI-60 one-dose screen, 48 h (100 = growth as untreated, 0 = no growth, -100 = all killed)
# CONDITION_SET: 10 µM
# Experimental: Growth inhibition of the MOLT-4 human tumor cell line is measured as a screen for anti-cancer activity. Cells are grown in 96 well plates and exposed to the test compound for 48 hours. Compounds are tested at a single concentration, which is 10^-5 M for most compounds. The reported endpoint is percent growth (GI% or GIPRCNT), where numbers from 0 - 100% represent growth inhibition, and numbers from -100% - 0 represent cell death. For example, a value of 40 represents 60% growth inhibition. […]
Compounds without any hit were thinned out: in the full panel of roughly 83,000, 20% have a hit. Activity calls are given as the source filed them. Rule for the calls: active = growth percent below 10; inactive = the rest.
MEASURE_NAME: growth

>>> result("CCN(CC)CCN1CC(=O)Nc2cc(Cl)ccc21")
"105% (inactive)"
>>> result("ClC(Cl)(Cl)c1nc2nccnc2[nH]1")
"104% (inactive)"
>>> result("Nc1nc(N)c(NC(=O)CNc2ccc(C(=O)O)cc2)c(N)n1")
"107% (inactive)"
>>> result("CN(CCc1ccccn1)c1ccccc1")
"59.9% (inactive)"
>>> result("CNc1ccc(CSc2ccc(C)cc2)cc1")
"82.6% (inactive)"
>>> result("COc1ccc(-c2nsc3c2NC(=O)CC3c2ccc(F)cc2)cc1 (stereo not drawn)")
"21.7% (inactive)"
>>> result("COc1ccc(Nc2ccnc(NCCNc3ccnc4cc(Cl)ccc34)n2)cc1")
"18% (inactive)"
>>> result("N=C(N)c1ccc(-c2ccc(-c3cccs3)o2)cc1")
"-2.16% (active)"
>>> result("O=C1/C(=C/c2ccc([N+](=O)[O-])s2)Oc2ccccc21")
"-6.14% (active)"
>>> result("CC12O[C@H](C[C@@H](O)[C@H]1O)n1c3ccccc3c3c4c(c5c6ccccc6n2c5c31)C(=O)N(CCCN)C4=O")
"-3.13% (active)"
>>> result("COc1ccc(C(=O)/C=C/c2cc(-c3cc(OC)c(OC)c(OC)c3)n[nH]2)cc1")
"3.23% (active)"
>>> result("O=C(Nc1ccc(Cl)cc1)N1NC(c2ccc(Cl)cc2)C=C1c1ccccc1 (stereo not drawn)")
"83.7% (inactive)"
>>> result("N#CSCC1CC(O)(c2ccccc2)CC(c2ccc(Cl)cc2)O1 (stereo not drawn)")
"-11.5% (active)"
>>> result("Cc1ccc(C)c(C(O)(c2cc(C)ccc2C)C2(O)CCCCC2)c1")
"71.5% (inactive)"
>>> result("O=C(Nc1cccc(-n2cc(-c3ccncc3)c(-c3cc(O)cc(Cl)c3)n2)c1)c1ccc(N2CCOCC2)c(C(F)(F)F)c1")
"-29.7% (active)"
>>> result("CCCCN(CCCC)CCCCCCCCC(O)c1cc2ccccc2c2ccccc12 (stereo not drawn)")
"39% (inactive)"
>>> result("COc1ccc2c(c1)C(=O)c1c-2c(=O)n(CCCN(C)C)c2cc(OC)c(OC)cc12")
"13.8% (inactive)"
>>> result("O=C1/C(=C\\c2ccccc2)CN(C(=O)c2ccccc2F)C/C1=C\\c1ccccc1")
"-4.02% (active)"
>>> result("COC(=O)C(=C\\c1ccc2c(c1)OCO2)/C(=C/c1ccc2c(c1)OCO2)C(=O)OC")
"105% (inactive)"
>>> result("CCCCCCCCCCCCCCCC(=O)OC1[C@@H](OC(=O)CCCCCCCCCCCCCCC)[C@@H](C(=O)N[C@@H](CCCCN)C(=O)OC)O[C@H]1n1cnc2c(=O)[nH]c(NC(=O)C(C)C)nc21 (stereo partly drawn)")
"93.4% (inactive)"
>>> result("FC(F)(F)c1ccc(-c2cnc(Cl)nc2N2CCC3(CC2)OCCO3)cc1")
"74% (inactive)"
>>> result("COc1ccc(-c2cc(/C=C3\\C(=O)Nc4ccc(Cl)cc43)[nH]n2)cc1OC")
"57.5% (inactive)"
>>> result("CCOC(=O)C1CCc2c(ccc3ccccc23)N1CCC#N (stereo not drawn)")
"77.9% (inactive)"
>>> result("COc1ccc2c(c1)N(CCO)C1=C(C(=O)OC1)C2c1cc(OC)c(OC)c(OC)c1 (stereo not drawn)")
"19.3% (inactive)"
>>> result("CC(=O)N1C/C(=C/c2ccc(Cl)cc2)C(=O)/C(=C/c2ccc(Cl)cc2)C1")
"0.236% (active)"
>>> result("Nc1ncn(C2OC(CO)C(O)C2O)c(=O)n1 (stereo not drawn)")
"0.695% (active)"
>>> result("CCOC(=O)C(=Cc1ccc(Br)cc1)C(=O)OCC")
"-8.75% (active)"
>>> result("CSc1nn(-c2ccccc2)c2ncnc(Oc3ccccc3)c12")
"97.3% (inactive)"
>>> result("O=C(Nc1ccncc1)C(=O)c1cn(S(=O)(=O)c2cccc3ccccc23)c2ccccc12")
"69% (inactive)"
>>> result("CO/N=C(/C(=O)NC1C(=O)N2C(C(=O)O)=C(COC(N)=O)CSC12)c1ccco1 (stereo not drawn)")
"111% (inactive)"
>>> result("CS(=O)(=O)Nc1ccc(Nc2c3ccccc3nc3cc(N)ccc23)cc1")
"5.41% (active)"
>>> result("O=C(Nc1nc2ccc(F)cc2s1)c1cc(-c2ccc(F)cc2)n2nc(-c3ccccc3)cc2n1")
"99.7% (inactive)"
>>> result("COc1ccc2c(c1)/C(=C\\c1c[nH]c3ccc(OC)cc13)C(=O)N2")
"11.7% (inactive)"
>>> result("CN(C)C=Nc1cc(Cl)ccc1Cl")
"108% (inactive)"
>>> result("Cn1c(C(N)=O)cc2c1-c1nc(Nc3ccccc3)ncc1CCC2")
"42.3% (inactive)"
>>> result("Cc1ccc(C(=O)N2C/C(=C/c3ccc(F)cc3)C(=O)/C(=C/c3ccc(F)cc3)C2)cc1")
"71.6% (inactive)"
>>> result("Clc1cccc(-c2nc(-c3cccs3)no2)c1")
"86.3% (inactive)"
>>> result("Nc1c(C(=O)Nc2ccccc2)sc2nc3c(cc12)CCCC3")
"15.7% (inactive)"
>>> result("CCCCC/C=C/C(=O)CCc1ccc(O)c(OC)c1")
"96.7% (inactive)"
>>> result("N=C1c2nc3n(c2C(=O)c2nc4n(c21)CCCC4)CCCC3")
"85.4% (inactive)"
>>> result("COc1cc(/C=N/NC(=O)c2ccccc2Nc2ccnc(C(F)(F)F)c2)ccc1O")
"-89.5% (active)"
>>> result("CCCCCCN1CCN(Cc2ccc(N(CC)CC)cc2)C(=O)C1=O")
"19.1% (inactive)"
>>> result("N#Cc1ncc(Br)c(NC2CCCCCC2)n1")
"86.8% (inactive)"
